Measured IC50 values are reported for all entries that follow.
# Assay target: TNFα trimer (Homo sapiens, UniProt P01375)
# Sequence (P01375 77-233 limits assumed): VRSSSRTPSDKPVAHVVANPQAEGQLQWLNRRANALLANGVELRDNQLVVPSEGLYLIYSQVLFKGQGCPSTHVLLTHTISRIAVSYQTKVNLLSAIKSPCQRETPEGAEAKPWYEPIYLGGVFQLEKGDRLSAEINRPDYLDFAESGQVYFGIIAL
# Experiment notes: TNFα FP Competitive Binding Assay
# Condition label: FP binding assay; 20 nM TNFα trimer, 1 nM OregonGreen488 probe; read-out: TNF IC50
Observable: IC50

{"Compound": "C[C@@H]1CN(C(=O)CO)CCN1c1ncc(-c2ccc3c(=O)n(C)n(Cc4ccccc4OC(F)F)c3c2)cn1 [Example 10.14]", "Observable": "IC50", "Observed": "< 1 µM"}
{"Compound": "Cn1c(=O)c2ccc(-c3cnc(N4CCNC(=O)C4)nc3)cc2n1Cc1ccccc1OC(F)F [Example 5.1]", "Observable": "IC50", "Observed": "1 to 10 µM"}
{"Compound": "Cc1ccc(OC(F)F)c(Cn2c3cc(-c4cnc(N5CCN(C(=O)CO)[C@@H](C)C5)nc4)ccc3c(=O)n2C)c1 [Example 36]", "Observable": "IC50", "Observed": "< 1 µM"}
{"Compound": "Cn1c(=O)c2ccc(-c3cnc(N4CCN5C(=O)N(CCO)C[C@H]5C4)nc3)cc2n1Cc1ccccc1OC(F)F [Example 35]", "Observable": "IC50", "Observed": "< 1 µM"}
{"Compound": "Cc1ccc(OC(F)F)c(Cn2c3cc(-c4cnc(N5CCN(C(=O)C6CCO6)[C@H](C)C5)nc4)ccc3c(=O)n2C)c1 (stereo partly shown) [Example 21.3]", "Observable": "IC50", "Observed": "< 1 µM"}
{"Compound": "Cn1c(=O)c2ccc(-c3cnc(C4(O)CN(C(=O)CO)C4)nc3)cc2n1Cc1ccccc1OC(F)F [Example 91]", "Observable": "IC50", "Observed": "1 to 10 µM"}
{"Compound": "C[C@@H]1CN(C(=O)CO)CCN1c1ncc(-c2c(F)cc3c(=O)n(C)n(Cc4ccccc4OC(F)F)c3c2F)cn1 [Example 30]", "Observable": "IC50", "Observed": "< 1 µM"}

---

# Assay target: UniProtKB P01375
# Experiment notes: TNFα FP Competitive Binding Assay
# Condition label: FP binding assay; 20 nM TNFα trimer, 1 nM OregonGreen488 probe; read-out: TNF IC50
Listed next: entries and their corresponding IC50.

{"Compound": "C[C@@H]1CN(c2ncc(-c3ccc4c(=O)n(C)n(Cc5ccccc5Cl)c4n3)cn2)CCN1C(=O)CO [Example 23.1]", "IC50": "< 1 µM"}
{"Compound": "Cn1c(=O)c2ccc(-c3ccnc(OC4CCCOC4)c3)cc2n1Cc1ccccc1OC(F)F (stereo not shown) [Example 10.13]", "IC50": "1 to 10 µM"}
{"Compound": "Cc1ccc(OC(F)F)c(Cn2c3cc(-c4ccc(C(C)(C)N)nc4)c(F)cc3c(=O)n2C)c1 [Example 89, 2,2,2-trifluoroacetate]", "IC50": "< 1 µM"}
{"Compound": "O=c1[nH]n(Cc2ccccc2OC(F)F)c2cc(-c3cnc(N4CCOCC4)nc3)ccc12 [Example 6.1]", "IC50": "> 10 µM"}
{"Compound": "Cc1ccc(OC(F)F)c(Cn2c3cc(-c4cnc(N5CCN6C(=O)NCC6C5)nc4)ccc3c(=O)n2C)c1 (single isomer, unassigned) [Example 8]", "IC50": "< 1 µM"}
{"Compound": "Cn1c(=O)c2ccc(-c3nc(N4CCOCC4)no3)cc2n1Cc1ccccc1OC(F)F [Example 13]", "IC50": "1 to 10 µM"}
{"Compound": "Cc1ccc(OC(F)F)c(Cn2c3cc(-c4cnc(N5CCN(C(=O)CO)[C@H](C)C5)nc4)ccc3c(=O)n2C)c1 [Example 22.3]", "IC50": "< 1 µM"}
